Sourced from ChEMBL document CHEMBL3727353

Assay: AUC (0 to infinity) in Balbc mouse at 5 mg/kg, iv by LC-MS/MS analysis
Format: ADME, organism-based
Design: dose 5 mg/kg, time infinity, route intravenous
Details: BALB/c, in vivo
readout: AUC(0-inf) (ng·h/mL)
Reply numerically in ng·h/mL, unit not repeated.

Recorded AUC(0-inf) of `CCOc1ccc(-c2nnc(SCC(=O)Nc3cc(C)cc(C)c3)[nH]2)cc1F` , please.
1290
